- System: SK-MEL-28 melanoma
- ASSAY_EXPLANATION: NCI tumour cell line growth inhibition, 48 h

{"MOLECULE": "CC/C(Cl)=N\\OC(=O)Nc1ccc(F)c([N+](=O)[O-])c1", "READOUT_RELATION": "=", "TGI (µM)": 33.9}
{"MOLECULE": "CCN(CC)c1cc2oc3cc(N)cc(=N)c-3nc2cc1C", "READOUT_RELATION": "=", "TGI (µM)": 27}
{"MOLECULE": "CC(C(=O)n1c2ccccc2c2ccccc21)N(c1ccccc1)c1ccccc1 (configuration not stated)", "READOUT_RELATION": "=", "TGI (µM)": 34.4}
{"MOLECULE": "O=C(NO)c1ccc(CN(c2cnccn2)c2cnccn2)cc1", "READOUT_RELATION": "=", "TGI (µM)": 36.4}
{"MOLECULE": "CCc1nc2cc3cccnc3c(Cl)c2[nH]c1=O", "READOUT_RELATION": ">", "TGI (µM)": 100}
{"MOLECULE": "COP(=O)(OC)C12CCOCCN1c1ccccc1C2=O (configuration not stated)", "READOUT_RELATION": ">", "TGI (µM)": 100}
{"MOLECULE": "CC1CN1c1c(C(=O)/C=C/c2ccc(Cl)cc2)c(-c2ccccc2)nn(C)c1=O (configuration not stated)", "READOUT_RELATION": ">", "TGI (µM)": 10}

* * *

- Tested on: MDA-MB-231 breast
- ASSAY_EXPLANATION: NCI tumour cell line growth inhibition, 48 h

{"CPD_SMILES": "CO/N=C(/C)c1cccc(Nc2cc(-c3ccccc3)nc3ccc(OC)cc23)c1", "STUDY_SYSTEM": "MDA-MB-231 breast", "GI50": "3.49 µM"}
{"CPD_SMILES": "C=C1CC[C@@H](C(C)C)C[C@@H]2[C@H]([C@H](O)C[C@]2(C)O)[C@@]2(C)CC[C@@H]1O2", "STUDY_SYSTEM": "MDA-MB-231 breast", "GI50": "13.9 µM"}
{"CPD_SMILES": "S=C1SC2=Nc3ccccc3CN2C2=NCCN12", "STUDY_SYSTEM": "MDA-MB-231 breast", "GI50": "> 100 µM"}
{"CPD_SMILES": "COc1ccc(/C=C(/c2ccccc2)[N+](=O)[O-])cc1", "STUDY_SYSTEM": "MDA-MB-231 breast", "GI50": "1.59 µM"}
{"CPD_SMILES": "COc1ccc(-c2csc(NC(=O)CSc3nc(C)c(-c4ccccc4)n3Nc3ccccc3)n2)cc1", "STUDY_SYSTEM": "MDA-MB-231 breast", "GI50": "13.3 µM"}

* * *

- System: SF-295 CNS
- ASSAY_EXPLANATION: NCI tumour cell line growth inhibition, 48 h
ENDPOINT_LABEL: TGI

{"CPD_SMILES": "O=C(NO)c1ccc(CN(c2cnccn2)c2cnccn2)cc1", "STUDY_SYSTEM": "SF-295 CNS", "ENDPOINT_LABEL": "TGI", "ENDPOINT_RESULT": "33.4 µM"}
{"CPD_SMILES": "O=c1c2ccccc2nc(-c2ccccc2)n1NC(=S)Nc1ccccc1", "STUDY_SYSTEM": "SF-295 CNS", "ENDPOINT_LABEL": "TGI", "ENDPOINT_RESULT": "> 100 µM"}
{"CPD_SMILES": "CSC(SC)=C1C(=O)N(c2ccccc2)N=C1C", "STUDY_SYSTEM": "SF-295 CNS", "ENDPOINT_LABEL": "TGI", "ENDPOINT_RESULT": "99.6 µM"}
